Provenance of the data: patent US20240287154A1

Test: in vitro
Conditions: mouse, plasma
Non-standard residues stand in square brackets, D forms with d. Residues, ends and D or L forms follow the SMILES beside them. NMeY = CN[C@@H](Cc1ccc(O)cc1)C(=O)O; Nle = CCCC[C@H](N)C(=O)O
Endpoint Label: remaining at 5 min, 1 µM (%)

{"Compound": "CCCC[C@H](NC(=O)[C@@H](NC(=O)[C@@H](N)Cc1ccc(O)cc1)C(C)C)C(=O)N[C@H](C)C(=O)N[C@@H](Cc1c[nH]cn1)C(=O)N[C@@H](Cc1ccccc1)C(=O)N[C@@H](CCCNC(=N)N)C(=O)N[C@H](Cc1c[nH]c2ccccc12)C(=O)N[C@@H](CC(=O)O)C(N)=O [CTX-1108, Tyr-Val-Nle-D-Ala-His-Phe-Arg-D-Trp-Asp] (H-YV[Nle][dA]HFR[dW]D-NH2)", "Result Units": "%", "Experimental Result": 7.21}
{"Compound": "CC(C)[C@H](NC(=O)[C@@H](N)Cc1ccc(O)cc1)C(=O)N[C@@H](CCC(=O)O)C(=O)NCC(=O)N[C@@H](Cc1c[nH]cn1)C(=O)N[C@@H](Cc1ccccc1)C(=O)N[C@@H](CCCNC(=N)N)C(=O)N[C@H](Cc1c[nH]c2ccccc12)C(=O)N[C@@H](CC(=O)O)C(=O)N[C@@H](CCCNC(=N)N)C(=O)N[C@@H](Cc1ccccc1)C(=O)NCC(N)=O [CTX-1105] (H-YVEGHFR[dW]DRFG-NH2)", "Result Units": "%", "Experimental Result": 23.4}
{"Compound": "CCCC[C@H](NC(=O)[C@@H](NC(=O)[C@@H](N)Cc1ccc(O)cc1)C(C)C)C(=O)N[C@H](C)C(=O)N[C@@H](Cc1c[nH]cn1)C(=O)N[C@@H](Cc1ccccc1)C(=O)N[C@@H](CCCNC(=N)N)C(=O)N[C@H](Cc1c[nH]c2ccccc12)C(=O)N[C@@H](CC(=O)O)C(=O)N[C@@H](CCCNC(=N)N)C(=O)N[C@@H](Cc1ccccc1)C(=O)NCC(=O)O [CTX-1103] (H-YV[Nle][dA]HFR[dW]DRFG-OH)", "Result Units": "%", "Experimental Result": 9.3}
{"Compound": "CCCC[C@H](NC(=O)[C@@H](NC(C)=O)C(C)C)C(=O)N[C@H](C)C(=O)N[C@@H](Cc1c[nH]cn1)C(=O)N[C@@H](Cc1ccccc1)C(=O)N[C@@H](CCCNC(=N)N)C(=O)N[C@H](Cc1c[nH]c2ccccc12)C(=O)N[C@@H](CC(=O)O)C(=O)N[C@@H](CCCNC(=N)N)C(=O)N[C@@H](Cc1ccccc1)C(=O)NCC(=O)O [CTX-1121] (Ac-V[Nle][dA]HFR[dW]DRFG-OH)", "Result Units": "%", "Experimental Result": 118}
{"Compound": "CCCC[C@H](NC(=O)[C@@H](NC(=O)[C@H](Cc1ccc(O)cc1)NC)C(C)C)C(=O)N[C@H](C)C(=O)N[C@@H](Cc1c[nH]cn1)C(=O)N[C@@H](Cc1ccccc1)C(=O)N[C@@H](CCCNC(=N)N)C(=O)N[C@H](Cc1c[nH]c2ccccc12)C(=O)N[C@@H](CC(=O)O)C(N)=O [CTX-1141] (H-[NMeY]V[Nle][dA]HFR[dW]D-NH2)", "Result Units": "%", "Experimental Result": 106}
